test.summary: BET inhibitor-based combinations targeting novel dependencies in MECOM-rearranged (r) AML: UCSD-AML1 cell line (AID 2202235); note: nearly all actives have a fitted effect of over 40% in size
experimental.parameters: UCSD-AML1 AML cells viability, CellTiter-Glo, 48 h; series mostly up to 46 µM
Results filed as inconclusive are left out. Calls of active or inactive are those of the source. Calls come from the whole dose curve; as a rule, active = well fitted inhibition curve with a large enough effect; inconclusive = small, poorly fitted or top-dose-only effect; inactive = no such curve, though single readings can be large or run the other way. Residues, ends and D or L forms follow the SMILES beside them.
Return exactly one item of t for active, f for inactive

For orientation, consider the following solved cases.
compound: C[C@@H]1[C@H](O)[C@@H](C)/C=C/C=C/C=C/C=C/C=C/C=C/C=C/[C@H](O[C@@H]2O[C@H](C)[C@@H](O)[C@H](N)[C@@H]2O)C[C@@H]2O[C@](O)(C[C@@H](O)C[C@@H](O)[C@H](O)CC[C@@H](O)C[C@@H](O)CC(=O)O[C@H]1C)C[C@H](O)[C@H]2C(=O)O
label.class: f

compound: O=C1S/C(=C\c2ccc(OCc3cccc(B(O)O)c3)cc2)C(=O)N1Cc1ccc(F)cc1
label.class: f

compound: C[C@@H](Oc1cc(C(=O)Nc2ccc(C(=O)N3CCN(C)CC3)cc2)nnc1N)c1c(Cl)ccc(F)c1Cl
label.class: t

compound: O=C(CO)N1CCC(c2[nH]nc(-c3ccc(Cl)cc3)c2-c2ccncn2)CC1
label.class: f

compound: Cc1nc2cccc(N)c2c(=O)n1C1CCC(=O)NC1=O (centres undefined)
label.class: f

Ask: Give the logged outcome of this assay for the following compound: COc1ccc([C@@H]2CC(=O)c3c(O)cc(O[C@@H]4O[C@H](CO[C@@H]5O[C@@H](C)[C@H](O)[C@@H](O)[C@H]5O)[C@@H](O)[C@H](O)[C@H]4O)cc3O2)cc1O
Reply: f

Ask: Give the logged outcome of this assay for the following compound: CCCCCCCCCCCCCC(=O)N[C@H](CO)[C@H](O)c1ccc([N+](=O)[O-])cc1
Reply: f

Ask: Give the logged outcome of this assay for the following compound: Cc1[nH]cnc1CN1CCN(C(=O)N[C@@H](CC(C)C)C(=O)O)[C@@H](Cc2ccccc2)C1=O
Reply: f

Ask: Give the logged outcome of this assay for the following compound: CC(C)Oc1ccc(-c2nn([C@@H](C)c3oc4ccc(F)cc4c(=O)c3-c3cccc(F)c3)c3ncnc(N)c23)cc1F
Reply: f

Ask: Give the logged outcome of this assay for the following compound: CNC(=O)[C@H]1O[C@@H](n2cnc3c(NCc4cccc(I)c4)nc(Cl)nc32)[C@H](O)[C@@H]1O
Reply: f

Ask: Give the logged outcome of this assay for the following compound: N[C@@H](CCC(=O)O)C(=O)N[C@@H](Cc1c[nH]c2ccccc12)C(=O)O (H-Glu-Trp-OH)
Reply: f

Ask: Give the logged outcome of this assay for the following compound: O=c1cc(O)c(Cl)c[nH]1
Reply: f

Ask: Give the logged outcome of this assay for the following compound: Cc1ccc(S(=O)(=O)Nc2cc(-c3ccc(C#N)s3)ccc2C)cc1
Reply: t

====

test.summary: BET inhibitor-based combinations targeting novel dependencies in MECOM-rearranged (r) AML: HNT-34 cell line (AID 2202234); note: nearly all actives have a fitted effect of over 35% in size
experimental.parameters: HNT-34 AML viability, CellTiter-Glo luminescence, 48 h; series mostly up to 46 µM
Results filed as inconclusive are left out. Activity calls are given as the source filed them. The call rests on the fitted dose curve; in most records, active means well fitted inhibition curve with a large enough effect; inconclusive means small, poorly fitted or top-dose-only effect; inactive means no such curve, though single readings can be large or run the other way.
Return exactly one item of active, inactive

For orientation, consider the following solved cases.
compound: COc1ccc2c(c1)[C@]1(C[C@H]1c1ccc3c(/C=C/c4ccc(CN5C[C@@H](C)O[C@@H](C)C5)cc4)n[nH]c3c1)C(=O)N2
label.class: active
//
compound: COc1ccc(-c2oc3c(CC=C(C)C)c(OC4O[C@H](CO)[C@@H](O)[C@H](O)[C@H]4O)cc(O)c3c(=O)c2OC2O[C@@H](C)[C@H](O)[C@@H](O)[C@H]2O)cc1 (stereo partly drawn)
label.class: inactive
//
compound: CC(/C=C/C(=O)NO)=C\[C@@H](C)C(=O)c1ccc(N(C)C)cc1
label.class: active

Ask: Give the logged outcome of this assay for the following compound: COc1cc(OC)c(NC(=O)Nc2cc(C)on2)cc1Cl
Reply: inactive

Ask: Give the logged outcome of this assay for the following compound: Cn1ncc(Cl)c1-c1cc(C(=O)NC(CN)Cc2ccc(F)c(F)c2)oc1Cl (stereo not drawn)
Reply: active
